- System Tested: Alpha-1D adrenergic receptor (Rattus norvegicus)
- Sequence (P23944 whole entry): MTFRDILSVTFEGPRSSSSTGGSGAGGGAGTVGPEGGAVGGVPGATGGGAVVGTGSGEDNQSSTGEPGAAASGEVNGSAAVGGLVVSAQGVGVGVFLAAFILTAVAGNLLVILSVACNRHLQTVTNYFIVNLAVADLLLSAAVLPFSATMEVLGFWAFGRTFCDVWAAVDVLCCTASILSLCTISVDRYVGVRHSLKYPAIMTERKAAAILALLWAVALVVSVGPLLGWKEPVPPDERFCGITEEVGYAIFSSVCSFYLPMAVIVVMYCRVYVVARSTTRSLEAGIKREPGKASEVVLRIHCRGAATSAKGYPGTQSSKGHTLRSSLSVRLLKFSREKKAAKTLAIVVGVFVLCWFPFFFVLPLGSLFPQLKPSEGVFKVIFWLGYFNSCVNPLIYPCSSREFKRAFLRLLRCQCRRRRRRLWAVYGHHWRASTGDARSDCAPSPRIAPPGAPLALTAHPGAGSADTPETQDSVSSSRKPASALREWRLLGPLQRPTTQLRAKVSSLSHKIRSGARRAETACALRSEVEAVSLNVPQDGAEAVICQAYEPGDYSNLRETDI
- Assay Notes: Inhibition of phenylephrine-stimulated Wistar rat aorta contraction at 10 uM
- Format: functional, tissue-based
- Parameters: scale not given: the % may be the effect or the level left
Property Name: Activity (%)

Cn1nc(Cc2ccc(Cl)cc2)c2ccccc2c1=O; 99.3

[1] Cn1nc(Cc2ccc3c(c2)OCO3)c2ccccc2c1=O
[2] Oc1nnc(Cc2ccc(Cl)cc2Cl)c2ccccc12
[3] COc1ccc(CC(=O)c2ccccc2C(=O)N2CCCCC2)cc1OC
[4] COc1cc(Cc2nn(C)c(=O)c3ccccc23)cc(OC)c1OC
Enquiry: I would appreciate it if you could sort these 4 molecules by Activity, starting from the smallest number. Put the labels in the requested order and list them out.
Return: 4, 3, 2, 1
(4: 16.7%, 3: 30%, 2: 61.3%, 1: 90.2%)

[a] Cn1nc(Cc2ccccc2Cl)c2ccccc2c1=O
[b] Oc1nnc(Cc2ccc(Cl)c(Cl)c2)c2ccccc12
Enquiry: Hi! Which is lower in terms of Activity, the first one a or the second one b ? Kindly state the label of the option you pick.
Return: b
(b: 53.8%, a: 84%)

[A] COc1ccc(Cc2nn(C)c(=O)c3ccccc23)cc1OC
[B] OC1(Cc2ccc3c(c2)OCO3)c2ccccc2C2=NCCN21 (centres undefined)
Enquiry: Hi! Which is lower in terms of Activity, the first one A or the second one B ? Kindly state the label of the option you pick.
Return: B
(B: 47%, A: 67.7%)

[a] CSc1ccc(Cc2nn(C)c(=O)c3ccccc23)cc1
[b] O=c1[nH]nc(Cc2ccccc2)c2ccccc12
Enquiry: Hi! Which is lower in terms of Activity, the first one a or the second one b ? Kindly state the label of the option you pick.
Return: b
(b: 53%, a: 87.2%)

[A] Oc1nnc(Cc2cccc3ccccc23)c2ccccc12
[B] Oc1nnc(Cc2ccc3ccccc3c2)c2ccccc12
Enquiry: Hi! Which is lower in terms of Activity, the first one A or the second one B ? Kindly state the label of the option you pick.
Return: B
(B: 43.9%, A: 79.2%)

[I] Cn1nc(Cc2ccccc2)c2ccccc2c1=O
[II] COc1ccc(Cc2nnc(O)c3ccccc23)cc1OC
Enquiry: Hi! Which is lower in terms of Activity, the first one I or the second one II ? Kindly state the label of the option you pick.
Return: I

[A] Oc1nnc(Cc2ccccc2Cl)c2ccccc12
[B] Cn1nc(Cc2cccc3ccccc23)c2ccccc2c1=O
Enquiry: Hi! Which is lower in terms of Activity, the first one A or the second one B ? Kindly state the label of the option you pick.
Return: B

[A] COc1ccc(C(=O)C(=O)c2ccccc2C(=O)N2CCCCC2)cc1OC
[B] Cn1nc(Cc2ccc3ccccc3c2)c2ccccc2c1=O
Enquiry: Task for the reader: decide whether A or B has the larger Activity. Kindly state the label of the option you pick.
Return: A

----------
- System Tested: Alpha-1A adrenergic receptor (Rattus norvegicus)
- Sequence (whole entry): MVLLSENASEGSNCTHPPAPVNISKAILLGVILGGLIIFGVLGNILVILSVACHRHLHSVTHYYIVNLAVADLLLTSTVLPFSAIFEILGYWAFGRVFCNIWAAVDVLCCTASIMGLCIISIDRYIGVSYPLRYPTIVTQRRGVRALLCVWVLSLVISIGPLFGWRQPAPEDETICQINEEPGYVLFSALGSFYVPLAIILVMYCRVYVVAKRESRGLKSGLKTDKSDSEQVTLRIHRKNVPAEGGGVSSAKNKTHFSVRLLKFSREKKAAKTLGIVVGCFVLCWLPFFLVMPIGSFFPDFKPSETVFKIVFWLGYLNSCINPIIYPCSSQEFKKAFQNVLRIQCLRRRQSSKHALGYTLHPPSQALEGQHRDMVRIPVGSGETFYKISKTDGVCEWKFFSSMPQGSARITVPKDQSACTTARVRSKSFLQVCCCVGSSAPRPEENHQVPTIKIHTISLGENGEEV
- Assay Notes: Inhibition of noradrenaline-stimulated Wistar rat vas deferens contraction at 1 uM
- Assay type: functional
Property Name: inhibition (%)

Cn1nc(Cc2ccccc2)c2ccccc2c1=O; 36.6

[P] Oc1nnc(Cc2ccc3c(c2)OCO3)c2ccccc12
[Q] C=CCn1nc(Cc2ccc(Cl)cc2)c2ccccc2c1=O
Enquiry: Hi! Which is lower in terms of inhibition, the first one P or the second one Q ? Kindly state the label of the option you pick.
Return: Q
(Q: 16.9%, P: 24.3%)

[P] Cn1nc(Cc2ccc(Cl)cc2)c2ccccc2c1=O
[Q] Oc1nnc(Cc2ccc(Cl)cc2)c2ccccc12
Enquiry: Task for the reader: decide whether P or Q has the larger inhibition. Kindly state the label of the option you pick.
Return: P

----------
- System Tested: Alpha-1D adrenergic receptor (Rattus norvegicus)
- Assay Notes: Vasorelaxation of phenylephrine-stimulated Wistar rat aorta contraction
Property Name: EC50 (µM)

Solved entries:
O=c1[nH]nc(Cc2ccc(Cl)cc2)c2ccccc12; 0.79
Cn1nc(Cc2cccc3ccccc23)c2ccccc2c1=O; 14
CCn1nc(Cc2ccc(Cl)cc2)c2ccccc2c1=O; 1.3
COc1ccc(Cc2nnc(O)c3ccccc23)cc1OC; 3.7
Cn1nc(Cc2ccc(Cl)cc2)c2ccccc2c1=O; 0.43
CSc1ccc(Cc2n[nH]c(=O)c3ccccc23)cc1; 5.5
Oc1nnc(Cc2ccccc2Cl)c2ccccc12; 1.9
CCn1nc(Cc2ccc(OC)c(OC)c2)c2ccccc2c1=O; 5.3
CCCCn1nc(Cc2ccc(OC)c(OC)c2)c2ccccc2c1=O; 5.4
Oc1nnc(Cc2cccc3ccccc23)c2ccccc12; 4.4

[a] Cn1nc(Cc2ccc3c(c2)OCO3)c2ccccc2c1=O
[b] Cn1nc(Cc2ccccc2Cl)c2ccccc2c1=O
[c] Oc1nnc(Cc2ccc3c(c2)OCO3)c2ccccc12
[d] COc1ccc(Cc2nn(C(C)(C)C)c(=O)c3ccccc23)cc1OC
Enquiry: I would appreciate it if you could sort these 4 molecules by EC50, starting from the smallest number. Put the labels in the requested order and list them out.
Return: a, b, c, d

[A] CSc1ccc(Cc2nn(C)c(=O)c3ccccc23)cc1
[B] C=CCn1nc(Cc2ccc(Cl)cc2)c2ccccc2c1=O
[C] Cn1nc(Cc2ccc(Cl)c(Cl)c2)c2ccccc2c1=O
[D] O=c1c2ccccc2c(Cc2ccc(Cl)cc2)nn1-c1ccc([N+](=O)[O-])cc1
[E] C=CCn1nc(Cc2ccc(OC)c(OC)c2)c2ccccc2c1=O
Enquiry: Rank order required: EC50, descending. Put the labels in the requested order and list them out.
Return: D, E, C, B, A

[I] Cn1nc(Cc2ccc(Cl)cc2Cl)c2ccccc2c1=O
[II] COc1ccc(Cc2nn(C)c(=O)c3ccccc23)cc1OC
Enquiry: Task for the reader: decide whether I or II has the larger EC50. Kindly state the label of the option you pick.
Return: II
(II: 2.2 µM, I: 1.2 µM)

----------
- System Tested: Alpha-1A adrenergic receptor (Rattus norvegicus)
- Sequence (P43140 whole entry): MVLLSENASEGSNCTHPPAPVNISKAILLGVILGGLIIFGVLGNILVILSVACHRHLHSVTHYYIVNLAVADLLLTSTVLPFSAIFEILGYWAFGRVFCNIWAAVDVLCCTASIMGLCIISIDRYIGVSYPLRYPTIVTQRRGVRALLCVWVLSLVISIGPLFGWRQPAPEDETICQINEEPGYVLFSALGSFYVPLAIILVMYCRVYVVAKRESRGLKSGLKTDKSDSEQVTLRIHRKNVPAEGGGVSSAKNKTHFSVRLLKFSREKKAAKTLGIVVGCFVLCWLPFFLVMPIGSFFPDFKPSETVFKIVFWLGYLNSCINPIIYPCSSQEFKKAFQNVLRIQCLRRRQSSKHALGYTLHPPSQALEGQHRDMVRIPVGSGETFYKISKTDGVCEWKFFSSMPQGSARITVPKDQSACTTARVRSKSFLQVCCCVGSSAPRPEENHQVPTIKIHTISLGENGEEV
- Assay Notes: Vasorelaxation of noradrenaline-stimulated Wistar rat vas deferens contraction
pEC50: −log10 of the molar value.
Property Name: pEC50

Oc1nnc(Cc2ccc3c(c2)OCO3)c2ccccc12; 5.52

[P] C=CCn1nc(Cc2ccc(Cl)cc2)c2ccccc2c1=O
[Q] Cn1nc(Cc2ccc(Cl)cc2)c2ccccc2c1=O
Enquiry: Task for the reader: decide whether P or Q has the larger pEC50. Kindly state the label of the option you pick.
Return: Q

[P] O=c1[nH]nc(Cc2ccc(Cl)cc2)c2ccccc12
[Q] Cn1nc(Cc2ccccc2)c2ccccc2c1=O
Enquiry: Hi! Which is lower in terms of pEC50, the first one P or the second one Q ? Kindly state the label of the option you pick.
Return: P

----------
- System Tested: Alpha-1D adrenergic receptor (Rattus norvegicus)
- Assay Notes: Inhibition of phenylephrine-stimulated Wistar rat aorta contraction at 100 uM
- Assay type: functional, tissue-based
- Design: scale not given: the % may be the effect or the level left
Property Name: Activity (%)

Solved entries:
COc1ccc(CCc2cc(O)cc(OC)c2C(=O)N2CCCCC2)cc1; 51
COc1cc(Cc2nnc(O)c3ccccc23)cc(OC)c1OC; 34.3
COc1ccc(CCc2cc(O)cc(OC)c2C(=O)O)cc1; 34

[P] COc1ccc(Cc2nnc(O)c3ccccc23)cc1
[Q] COc1ccc(Cc2nn(C)c(=O)c3ccccc23)cc1
Enquiry: Hi! Which is lower in terms of Activity, the first one P or the second one Q ? Kindly state the label of the option you pick.
Return: P

Reference for the values: ChEMBL document CHEMBL1147016
